Molecular target: CK1α (Homo sapiens, UniProt P48729+Q96SW2)
Construct: expressed in transfected cells; host or cells: HEK293T (lentiviral transduction, puromycin selection, FACS sorting)
Sequence (P48729 whole entry): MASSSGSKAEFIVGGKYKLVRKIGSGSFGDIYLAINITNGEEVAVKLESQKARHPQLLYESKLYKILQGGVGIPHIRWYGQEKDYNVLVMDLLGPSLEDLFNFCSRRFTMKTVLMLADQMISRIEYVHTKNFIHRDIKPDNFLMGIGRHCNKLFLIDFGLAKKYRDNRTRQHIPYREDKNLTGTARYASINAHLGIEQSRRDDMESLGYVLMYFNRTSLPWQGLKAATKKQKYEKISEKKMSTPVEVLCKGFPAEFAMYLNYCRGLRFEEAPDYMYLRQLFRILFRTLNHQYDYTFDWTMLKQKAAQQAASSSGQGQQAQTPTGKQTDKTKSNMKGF
Sequence (Q96SW2 whole entry): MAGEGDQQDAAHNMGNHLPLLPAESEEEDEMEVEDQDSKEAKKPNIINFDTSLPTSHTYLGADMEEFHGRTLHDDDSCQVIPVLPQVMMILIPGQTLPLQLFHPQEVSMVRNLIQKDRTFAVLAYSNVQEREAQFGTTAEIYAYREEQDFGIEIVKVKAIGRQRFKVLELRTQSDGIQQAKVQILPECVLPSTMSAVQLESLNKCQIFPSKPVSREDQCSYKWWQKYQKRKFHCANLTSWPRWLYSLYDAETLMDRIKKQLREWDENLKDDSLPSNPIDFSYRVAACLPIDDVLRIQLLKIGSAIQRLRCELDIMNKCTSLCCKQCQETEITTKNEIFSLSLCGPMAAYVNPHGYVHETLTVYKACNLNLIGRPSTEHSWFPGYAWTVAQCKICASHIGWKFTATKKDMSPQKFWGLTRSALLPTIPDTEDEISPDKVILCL
Sequence (Q16531 whole entry partner): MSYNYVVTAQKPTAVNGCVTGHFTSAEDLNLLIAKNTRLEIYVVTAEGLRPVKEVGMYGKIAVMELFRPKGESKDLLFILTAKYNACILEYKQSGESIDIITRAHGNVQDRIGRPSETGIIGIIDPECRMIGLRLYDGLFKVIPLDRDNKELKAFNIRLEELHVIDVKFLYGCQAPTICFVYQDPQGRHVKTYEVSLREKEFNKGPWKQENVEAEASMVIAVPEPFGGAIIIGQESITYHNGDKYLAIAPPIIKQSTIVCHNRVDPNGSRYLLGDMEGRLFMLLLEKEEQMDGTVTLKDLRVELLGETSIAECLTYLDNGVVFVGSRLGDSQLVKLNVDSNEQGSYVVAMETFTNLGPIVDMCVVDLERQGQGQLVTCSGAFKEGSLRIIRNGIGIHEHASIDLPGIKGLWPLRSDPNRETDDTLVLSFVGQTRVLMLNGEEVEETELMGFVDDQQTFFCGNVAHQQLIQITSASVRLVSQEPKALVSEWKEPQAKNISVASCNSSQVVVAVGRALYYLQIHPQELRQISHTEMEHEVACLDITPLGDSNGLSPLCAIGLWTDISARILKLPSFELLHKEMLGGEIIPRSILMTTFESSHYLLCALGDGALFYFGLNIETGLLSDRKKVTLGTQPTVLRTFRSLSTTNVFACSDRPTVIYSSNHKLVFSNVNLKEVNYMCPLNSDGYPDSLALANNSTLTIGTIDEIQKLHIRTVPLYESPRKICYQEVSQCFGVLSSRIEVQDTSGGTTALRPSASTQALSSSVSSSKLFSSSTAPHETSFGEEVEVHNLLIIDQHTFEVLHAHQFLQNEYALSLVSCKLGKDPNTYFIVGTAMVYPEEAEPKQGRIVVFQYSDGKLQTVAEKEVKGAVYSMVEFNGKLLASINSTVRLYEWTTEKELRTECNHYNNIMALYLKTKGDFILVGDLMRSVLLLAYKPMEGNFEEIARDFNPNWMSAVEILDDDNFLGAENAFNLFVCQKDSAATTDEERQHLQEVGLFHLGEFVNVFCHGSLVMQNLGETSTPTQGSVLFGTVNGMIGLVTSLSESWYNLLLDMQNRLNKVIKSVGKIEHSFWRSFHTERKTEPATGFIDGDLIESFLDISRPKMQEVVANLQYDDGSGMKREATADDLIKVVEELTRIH
Assay: Flow cytometry for measuring degradation, HEK293T GFP-POI reporter cells (CK1α)
Type: cell-based
Settings: Table 3; read-out: DC50 CK1a
Measurement type: DC50
Answer format: value, then unit.

C[C@H](NC(=O)c1ccccc1)C(=O)Nc1ccc2c(c1)CN(C1CCC(=O)NC1=O)C2=O (some centres unmarked)
0.175 µM
CSc1ccc2cc(C(=O)Nc3ccc4c(c3)CN(C3CCC(=O)NC3=O)C4=O)ccc2c1 (centres unmarked)
0.0028 µM
N#Cc1ccc2cc(C(=O)Nc3ccc4c(c3)CN(C3CCC(=O)NC3=O)C4=O)ccc2c1 (centres unmarked)
0.0026 µM
CN1C(=O)CCc2cc(C(=O)Nc3ccc4c(c3)CN(C3CCC(=O)NC3=O)C4=O)ccc21 (centres unmarked)
0.032 µM
CC(=O)N1CCC[C@H]1C(=O)Nc1ccc2c(c1)CN(C1CCC(=O)NC1=O)C2=O (some centres unmarked)
0.503 µM

For each of the items listed, what is its DC50?
1. CS(=O)(=O)c1ccc2cc(C(=O)Nc3ccc4c(c3)CN(C3CCC(=O)NC3=O)C4=O)ccc2c1 (centres unmarked)
2. CN1C(=O)COc2cc(C(=O)Nc3ccc4c(c3)CN(C3CCC(=O)NC3=O)C4=O)ccc21 (centres unmarked)

1. 0.0211 µM
2. 0.0425 µM

Given COCOc1ccc2cc(C(=O)Nc3ccc4c(c3)CN(C3CCC(=O)NC3=O)C4=O)ccc2c1 (centres unmarked) , state its recorded DC50. 0.0029 µM
